B1: Vpu with LgBiT fused to its C-terminus (pBiT1.1-C-vpu) [HIV-1] / RBM10 fused to SmBiT (pBiT2.1-C-rbm10) [human] (parent complex)
chain 1: MQPIQIAIAALVVAIIIAIVVWSIVIIEYRKILRQRKIDRLIDRLIERAEDSGNESEGEISALVEMGVEMGHHAPWDIDDL
chain 2: MEYERRGGRGDRTGRYGATDRSQDDGGENRSRDHDYRDMDYRSYPREYGSQEGKHDYDDSSEEQSAEDSYEASPGSETQRRRRRRHRHSPTGPPGFPRDGDYRDQDYRTEQGEEEEEEEDEEEEEKASNIVMLRMLPQAATEDDIRGQLQSHGVQAREVRLMRNKSSGQSRGFAFVEFSHLQDATRWMEANQHSLNILGQKVSMHYSDPKPKINEDWLCNKCGVQNFKRREKCFKCGVPKSEAEQKLPLGTRLDQQTLPLGGRELSQGLLPLPQPYQAQGVLASQALSQGSEPSSENANDTIILRNLNPHSTMDSILGALAPYAVLSSSNVRVIKDKQTQLNRGFAFIQLSTIVEAAQLLQILQALHPPLTIDGKTINVEFAKGSKRDMASNEGSRISAASVASTAIAAAQWAISQASQGGEGTWATSEEPPVDYSYYQQDEGYGNSQGTESSLYAHGYLKGTKGPGITGTKGDPTGAGPEASLEPGADSVSMQAFSRAQPGAAPGIYQQSAEASSSQGTAANSQSYTIMSPAVLKSELQSPTHPSSALPPATSPTAQESYSQYPVPDVSTYQYDETSGYYYDPQTGLYYDPNSQYYYNAQSQQYLYWDGERRTYVPALEQSADGHKETGAPSKEGKEKKEKHKTKTAQQIAKDMERWARSLNKQKENFKNSFQPISSLRDDERRESATADAGYAILEKKGALAERQHTSMDLPKLASDDRPSPPRGLVAAYSGESDSEEEQERGGPEREEKLTDWQKLACLLCRRQFPSKEALIRHQQLSGLHKQNLEIHRRAHLSENELEALEKNDMEQMKYRDRAAERREKYGIPEPPEPKRRKYGGISTASVDFEQPTRDGLGSDNIGSRMLQAMGWKEGSGLGRKKQGIVTPIEAQTRVRGSGLGARGSSYGVTSTESYKETLHKTMVTRFNEAQ

- Variants of: B1
- Run Description: NanoBiT luciferase complementation reporter assay; HEK293T cells, co-transfection, read after 2 days; parent: 1; read off a plot
The following variants are shown together with reported ratio to parent values.

Sequence Change	ratio to parent
chain 1 R34A	~0.63

Q. Name the recorded ratio to parent of the variant listed here: chain 1 V25A
A. ~0.41
